Molecular target: T1, UNK ZnF1-6 (called full-length) (human, UniProt Q9C0B0 30-357)
T1 sequence: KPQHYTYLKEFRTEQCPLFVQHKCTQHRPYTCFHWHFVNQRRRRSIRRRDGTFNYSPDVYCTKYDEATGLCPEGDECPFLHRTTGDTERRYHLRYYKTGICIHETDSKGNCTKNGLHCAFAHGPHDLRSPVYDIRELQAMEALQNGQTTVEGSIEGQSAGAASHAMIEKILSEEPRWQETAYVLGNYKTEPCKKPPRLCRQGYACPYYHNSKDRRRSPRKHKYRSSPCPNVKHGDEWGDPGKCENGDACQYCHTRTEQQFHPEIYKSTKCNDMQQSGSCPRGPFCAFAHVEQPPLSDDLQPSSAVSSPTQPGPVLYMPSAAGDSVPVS
Assay: nsRBNS (natural sequence RNA bind-n-seq); RBNS binding buffer (assumed for nsRBNS): 25 mM Tris pH 7.5, 150 mM KCl, 3 mM MgCl2, 0.01% Triton X-100, 500 ug/ml BSA, 20 U/ml SUPERase-In, 4 C; UNK is unkempt and MSI1 is Musashi-1; names of the RNAs are library labels; protein concentration not given here; high values mean tight binding
In all, about 5,800 sequences were measured (“enrichment r”: median about 0.68, highest 2% from about 11 on). The list is a sample of the results.
Measured Property: binding signal (enrichment R)
Provide only the numeric value, understood in enrichment R.

Using the record for chr20:57651677:57651767:-|3pUTR|ENSG00000124225|msi1_unk|FALSE|overlapping (ssRNA) RNA: GGGAGUUCUACAGUCCGACGAUCGUUGAGCUGUGUCUUGAAGGCAAAAGAAAAAAAAUUUCUACAGUAGUCUUUCUUGUUUCUAGUUGAGCUGCGUGCGUGAAUGCUUAUUUUCUUUUGUUUAUGAUAAUUUCACUUAACUUUCAACAGAGGAUUGAGCAUCA , state its measured binding signal.
1.22

Recall and state the measured binding signal for chr2:111862450:111862553:-|CDS|ENSG00000153107|unk|FALSE|unique (ssRNA) RNA: GGGAGUUCUACAGUCCGACGAUCUCUUUUUCAGGGGUGCAAAGGUUCAACAUUUCAAGCCAUAAUCAGUCUCCAAAGAGACAUAGUAUUUCUCAUUCUCCAAAUAGUAAUUCUAAUGGCUCCUUUCUUGCACCAGAAACGGAGCAACAGAGGAUUGAGCAUCA .
1.49

Quickly give me recorded binding signal for chr4:75597091:75597192:-|CDS|ENSG00000138769|unk|total|mutant (ssRNA) RNA: GGGAGUUCUACAGUCCGACGAUCUAUAAACUAUUUAAAAUAAAAGGCUCAAAAAUUGAUGGAGAAAAAGCUGAAAAAGGCAACCGAGCUUCAAAUGCCAGCUGUCUCCAUGACAGCCGGACAAGCCACAACAAAACCGUGCCUCAACAGAGGAUUGAGCAUCA
0.872

// fetch binding signal given entry chr5:41382290:41382405:-|CDS|ENSG00000182836|unk|total|mutant (ssRNA) RNA: GGGAGUUCUACAGUCCGACGAUCGGCCAAAAAGCUCAUGCGGAAAUGGUCCGCCACUCAGACAAUGAAUUUUACUGGCCAGCCCGGAGCUGGAAUUCGUUAUUUUGAUCUUCGAAUUUCCACCAAGCCCAGAGACCCCGACAACAACAGAGGAUUGAGCAUCA
0.445

Output binding signal of chr3:11298707:11298833:+|CDS|ENSG00000197548|unk|total|mutant (ssRNA) RNA: GGGAGUUCUACAGUCCGACGAUCAUAAUGGCGGCAGCUACGGGGGAUCCUGGACUCUCUAAACUGCAGUUUGCCCCUUUCCGCCGUGCCUUGGAUGUUGGGUUUUGGCAUGAGUUGACCCAGAAGAAGCUGAACGAGUAUCGGCAACAGAGGAUUGAGCAUCA
0.839
